Reported melting point values are given for each entry in this list.
READOUT: melting point

* C#CCCCCOc1ccc(C=O)cc1OC | 67 to 68 °C
* CCOc1cc(N)c(Cl)cc1C(=O)NCC1CN(CC2CCN(C(N)=O)CC2)CCO1 (stereo unspecified) | 201 to 207 °C
* O=C(Cc1cccc2ccccc12)Nc1cc(C2CC(NC(=O)C3CC3c3ccccc3)C2)[nH]n1 (stereo unspecified) | 140 °C
* CC(C)(C)OC(=O)/C=C1\CCc2cccc3c2N1CC3 | 105 to 107 °C
* CC(C)CN1C(=O)C2CC(c3ccc(N)cc3)(C2)C1=O | 158 to 160 °C
* COc1cccc(Nc2nc(-c3ccccc3)c(C(=O)c3sc(Nc4cccc(OC)c4)nc3-c3ccccc3)s2)c1 | > 285 °C
* O=C(Nc1ccc(Cl)c(C(F)(F)F)c1)N1COc2cc(Oc3ccnc(Cl)n3)ccc21 | 140 to 142 °C
* COC1(c2cccc(OCc3ccc4ccccc4c3)c2)CCCOCC1 (stereo unspecified) | 57 to 58 °C
* CCOC(=O)c1c(C2CCN(C)CC2)[nH]c(-c2ccc(F)c(F)c2)c1-c1ccncc1 | 262 to 265 °C
* CCSC(=S)N1C(CO)Cc2c([nH]c3ccccc23)C1CC (stereo unspecified) | 82 to 84 °C
* COc1ccc2c3c(cn2S(=O)(=O)c2ccc(C)cc2)CC(N=[N+]=[N-])C(=O)c13 (stereo unspecified) | 147 to 148 °C
* CC(=O)NCC1CN(c2ccc(C(=O)c3cnc4n3CCS4)cc2)C(=O)O1 (stereo unspecified) | 259 to 260 °C
* Cc1ccc(S(=O)(=O)n2cc(CO)nc2C)cc1 | 140 to 143 °C
* O=C(O)C(O)N1C(=O)CCN1c1cccc(Cl)c1 (stereo unspecified) | 134 to 136 °C
* CN(C)S(=O)(=O)NCC(C)(C)N | 77 to 78 °C
* Nc1c(-c2ccc(C(F)(F)F)cc2F)nnn1-c1ccc(O)cc1 | 176 to 178 °C
* C=C(C)C(=O)OCCOc1ccc(C(=O)O)cc1 | 146 °C
* CCOC(=O)C1=NN(C(=O)c2ccccc2I)C(C(=O)OCC)=NN1C(=O)c1ccccc1I | 186 to 187 °C
* CC(C)(C)C(=O)c1c[nH]c2ncc(-c3ccc(N4CCN(S(C)(=O)=O)CC4)cc3)nc12 | 288 to 290 °C
* CN(C)CCOc1ccc(C=O)c(O)c1 | 82 to 83 °C
* CCNc1c(C#N)cnn1-c1c(F)c(F)c(C(F)(F)F)c(F)c1F | 168 °C

----------
READOUT: melting point

• CC(=NOCCOc1ccc(CC2SC(=O)NC2=O)cc1)c1cccc(O)c1 (stereo not given) = 133 to 135 °C
• O=C1N(Cc2ccc(C(F)(F)F)o2)c2cccc(Br)c2C12COc1cc3c(cc12)CCO3 (stereo not given) = 165 to 167 °C
• Cc1cc(CCCCCCCOc2ccc(C(=O)OC(C)(C)C)cc2)on1 = 76 °C
• CCN(CC)C(=O)/C=C/c1ccc(Cn2c(-c3ccc(O)cc3)c(C)c3cc(O)ccc32)cc1 = 160 to 165 °C
• Cc1ccc(S(=O)(=O)N2CCCC2C(=O)OC2c3cc(C#N)ccc3OC(C)(C)C2Br)cc1 (stereo not given) = 162 to 169 °C
• O=C1NC(=O)c2cc(CCCCOc3ccccc3)ccc21 = 102 to 103 °C
• CC(C)(C)OC(=O)Nc1cc(OCc2ccccc2)c2ncccc2c1I = 118 to 119 °C
• CC(=O)OC1CSC(Oc2cc(F)cnc2C#N)C(OC(C)=O)C1OC(C)=O (stereo not given) = 150 °C
• N#CC(Cc1c[nH]cn1)(c1ccc(Cl)cc1)c1cccc(Cl)c1 (stereo not given) = 138 to 140 °C
• C=C(CC(Cl)(Cl)Cl)c1cnc(Cl)c(Cl)c1 = 76 to 77 °C
• O=C(CCCCl)Nc1nnc(-c2ccc(Br)cc2)s1 = 187 to 189 °C
• CN(Cc1ccc(NC(=O)C2CCS(=O)(=O)c3ccc(OCc4ccc(F)cc4)cc3C2)cc1)C1CCOCC1 (stereo not given) = 232 to 234 °C
• CC(C)(O)c1ccc(CNC(=O)c2cccnc2Oc2ccc(F)cc2F)cc1 = 92 to 94 °C
• O=c1[nH]c2cc(Br)cc3c2n(c1=O)CC3 = > 300 °C
• COc1ccc(COc2ccc(-c3ccc(C#N)c(=O)[nH]3)cc2OC)cc1OC = 220 to 221 °C

----------
Reported melting point values are given for each entry in this list.
READOUT: melting point

- CCOC(=O)c1ncc2c(c1CBr)c1ccccc1n2C(C)=O: 188 to 189 °C
- CCCOC(=O)c1cc(=O)c(Sc2ccc(OC)cc2)co1: 91 to 93 °C
- CN(Cc1csc(N)c1C(=O)c1ccc(Cl)cc1)c1ccccc1: 129 to 131 °C

----------
Reported melting point values are given for each entry in this list.
READOUT: melting point

* CC(C)(C)NC(=O)c1ccc(-c2ccc3nnn(Cc4ccc5ncccc5c4)c3n2)cc1F | 210 to 212 °C
* Cc1nsc(OCC(Cl)(Cl)Cl)c1S(=O)(=O)Cl | 71 to 74 °C
* CC(=O)CC(=O)Nc1cccc(OCc2ccccc2)c1 | 80 °C
* Cc1ccc(-c2cc(C(F)F)nn2-c2ccc(S(N)(=O)=O)c(F)c2)cc1Cl | 160 to 161 °C
* CS(=O)(=O)c1ccc(-n2nc(C(F)(F)F)cc2-c2ccc(C#CCCCO)cc2)cc1 | 87 to 90 °C
* CC(=O)OC1=C([C@H]2CC[C@H](c3ccc(Cl)cc3)CC2)C(=O)c2ccccc2C1=O | 149 to 152 °C
* CCn1nc(-c2ccccc2)c(C(C)=O)c(Nc2ccc([N+](=O)[O-])cn2)c1=O | 200 to 201 °C
* CCS(=O)(=O)CCC(=O)NNC(=O)N1Cc2ccccc2Oc2ccc(C#N)cc21 | 188 to 190 °C
* Cc1nnc(-c2ccnc(NCc3cccc(C(F)(F)F)c3)c2)o1 | 141 to 142 °C
* CCC1CN(C2C(=O)N(c3c(Cl)cc(Cl)cc3Cl)N=C2NC(=O)c2cccc(NC(=O)COc3ccc(C(C)(C)CC)cc3C(C)(C)CC)c2)CCC1C (stereo not given) | 145 to 155 °C

----------
READOUT: melting point

• O=C(O)c1cccc(-c2ccc3c(c2)C(c2ccc(Cl)cc2Cl)CCO3)c1 (centres undefined) = 223 to 224 °C
• COc1ccc(C=Cc2ccc(C#N)cc2)cc1 = 146 to 148 °C
• CCCCCCn1c(=O)c2c(ncn2CCCCC(C)O)n(C)c1=O (centres undefined) = 68 to 69 °C
• COC(=O)c1cc(S(N)(=O)=O)ccc1S(=O)(=O)CCCO = 124 to 126 °C
• CCCC12CCC3C4=C(CCC3C1CCC2O)CC(OC)=CC4 (centres undefined) = 153 to 156 °C
• COCCOCCOCC(=O)N(C)c1c(I)c(N)c(I)c(C(=O)O)c1I = 100 to 109 °C
• COc1ccc2c(c1)c(CCC(=O)O)cn2S(=O)(=O)c1ccc(C)cc1 = 172 to 174 °C
• COc1cc(CCCCCCCO)ccc1OCc1nc(-c2ccccc2)oc1C = 78 to 79 °C
• N#Cc1cc([N+](=O)[O-])ccc1OC12CC3CC(CC(C3)C1)C2 = 187 to 189 °C
• O=C1c2ccccc2-c2c1cccc2-c1nc2ccncc2[nH]1 = 236 to 238 °C
• CCOC(=O)Nc1nc2c(c3c(CCNS(C)(=O)=O)n(C)nc13)CCCC2 = 214 to 215 °C
• Cc1cc(-c2ccc3c(c2)c2cc(-c4ccc(Cl)cc4Cl)c(=O)n(C)c2n3C)[nH]n1 = 309 to 310 °C
• CC(C)(Cc1ccc(O)cc1)NCC(O)c1cc(OCc2ccccc2)cc2c1OCC(=O)N2 (centres undefined) = 255 to 258 °C
• COP(=O)(Cc1cc(C(C)(C)C)c(O)c(C(C)(C)C)c1)C1CCCCC1 (centres undefined) = 149 to 150 °C
• O=C(CCc1cccnc1)NCCCC1CCN(C(c2ccccc2)c2ccccc2)CC1 = 109 to 110 °C
• COC(C(=O)O)c1ccc(OCc2ccccn2)cc1 (centres undefined) = 169 to 170 °C
• CCN1C(=O)c2ccc(C)cc2Oc2ncccc21 = 88 to 90 °C
• COC(=O)C12COc3cc(C(F)(F)F)ccc3C1=NN(C(=O)Nc1ccc(Br)cn1)C2 (centres undefined) = 179 to 181 °C
• O=C(O)C1=Cc2cc(Cl)cc(Cl)c2NC1C(F)(F)F (centres undefined) = 223 to 226 °C

----------
Reported melting point values are given for each entry in this list.
READOUT: melting point

- NS(=O)(=O)c1ccc(-c2cnn(C3=CC=CC(F)(F)C3F)c(=O)c2-c2ccc(F)cc2)cc1 (centres undefined): 190 to 193 °C
- CCOC(=O)COc1cccc2c1CCc1sc(O)nc1-2: 74 to 75 °C
- FC(F)(F)c1ccc(OCCCc2cn(C(c3ccccc3)(c3ccccc3)c3ccccc3)cn2)cc1: 150 to 151 °C
- Cc1c(C)c2c(c(C)c1NC(=O)CC(C)(C)C)C(N1CCCC1)C(C)(C)O2 (centres undefined): 197 to 198 °C
- O=C(c1ccccc1)C1CCN(CCS(=O)c2ccc3[nH]c(=O)oc3c2)CC1 (centres undefined): 68 to 72 °C
- COc1nc(NC(=O)NS(=O)(=O)c2ccccc2OC(F)F)nc(OCC(F)(F)F)n1: 155 to 157 °C
- CN1CCC[C@H]1COc1ccc(/C=C/C(=O)O)cc1: 251 °C
- COc1ccc(N2CN(C)CNC2=S)cc1: 194 °C
- CCCOc1ccc(CO)nc1Cl: 59 to 60 °C
- CCCCC(CC)COc1cccc2c1C(=O)c1cccc(OCC(CC)CCCC)c1C2=O (centres undefined): 105 °C
- CCCCCCCCn1c2cc(OC)ccc2c2ccc(OC)cc21: 63 to 64 °C
- CCC1(C)NC(=O)N=C1SCc1ccccc1N(C)C (centres undefined): 111 to 113 °C
- Cc1ccc(-c2cc(C#N)c[nH]2)cc1: 169 to 171 °C
- O[C@H]1COC(c2ccccc2)=N[C@@H]1c1ccccc1 (racemic): 150 °C
- COC(=O)C(C)(C)c1ccc(C(=O)Nc2cn3c4c(ccc3n2)OCC4)cc1: 235 to 237 °C
- OP(O)C1(NC(c2ccccc2)c2ccccc2)CCCC1: 204 to 205 °C
- CCCCOc1c(CNC(=O)OC(C)(C)C)n(CC(C)C)c(=O)c2ccc(/C=C/c3cscn3)cc12: 141 to 142 °C
- CNc1c(F)cc2c(=O)c(C(=O)O)cn(-c3nc(N)c(F)cc3F)c2c1F: 270 to 273 °C
- CC(=Cc1ccc2c(c1)S(=O)(=O)c1cc(C=C(C)c3ccccc3)ccc1N2C)c1ccccc1: 190 to 193 °C
